Attribution: patent US20230235012A1

Biological target: T1, human CD28, full-length, expressed on transfected Expi293 cells (human, UniProt P10747 19-220)
T1 construct: whole, on cells
Test: flow cytometry, 100 nM, Expi293 cells with human CD28
Measured MFI accompanies every entry in the list below.
Dear colleague, please return just the value in MFI, with no unit written.

Some entries whose results are on file:
[
  {
    "Binder": "variant ICOSL IgV-Fc fusion N52D/Q100S (Fc fusion) DTQEKEVRAMVGSDVELSCACPEGSRFDLNDVYVYWQTSESKTVVTYHIPQDSSLENVDSRYRNRALMSPAGMLRGDFSLRLFNVTPQDEQKFHCLVLSSSLGFQEVLSVEVTLHVAANFSVGSGGGGSEPKSSDKTHTCPPCPAPEAEGAPSVFLFPPKPKDTLMISRTPEVTCVVVDVSHEDPEVKFNWYVDGVEVHNAKTKPREEQYNSTYRVVSVLTVLHQDWLNGKEYKCKVSNKALPAPIEKTISKAKGQPREPQVYTLPPSREEMTKNQVSLTCLVKGFYPSDIAVEWESNGQPENNYKTTPPVLDSDGSFFLYSKLTVDKSRWQQGNVFSCSVMHEALHNHYTQKSLSLSPG",
    "MFI [MFI]": 95700
  },
  {
    "Binder": "variant ICOSL IgV-Fc fusion N52R/N57F/Q100N (Fc fusion) DTQEKEVRAMVGSDVELSCACPEGSRFDLNDVYVYWQTSESKTVVTYHIPQRSSLEFVDSRYRNRALMSPAGMLRGDFSLRLFNVTPQDEQKFHCLVLSNSLGFQEVLSVEVTLHVAANFSVGSGGGGSEPKSSDKTHTCPPCPAPEAEGAPSVFLFPPKPKDTLMISRTPEVTCVVVDVSHEDPEVKFNWYVDGVEVHNAKTKPREEQYNSTYRVVSVLTVLHQDWLNGKEYKCKVSNKALPAPIEKTISKAKGQPREPQVYTLPPSREEMTKNQVSLTCLVKGFYPSDIAVEWESNGQPENNYKTTPPVLDSDGSFFLYSKLTVDKSRWQQGNVFSCSVMHEALHNHYTQKSLSLSPG",
    "MFI [MFI]": 161000
  },
  {
    "Binder": "variant ICOSL IgV-Fc fusion N52R/N57Y/Q100S (Fc fusion) DTQEKEVRAMVGSDVELSCACPEGSRFDLNDVYVYWQTSESKTVVTYHIPQRSSLEYVDSRYRNRALMSPAGMLRGDFSLRLFNVTPQDEQKFHCLVLSSSLGFQEVLSVEVTLHVAANFSVGSGGGGSEPKSSDKTHTCPPCPAPEAEGAPSVFLFPPKPKDTLMISRTPEVTCVVVDVSHEDPEVKFNWYVDGVEVHNAKTKPREEQYNSTYRVVSVLTVLHQDWLNGKEYKCKVSNKALPAPIEKTISKAKGQPREPQVYTLPPSREEMTKNQVSLTCLVKGFYPSDIAVEWESNGQPENNYKTTPPVLDSDGSFFLYSKLTVDKSRWQQGNVFSCSVMHEALHNHYTQKSLSLSPG",
    "MFI [MFI]": 133000
  }
]

Turning now to a further record.
Query block: // MFI lookup, key: variant ICOSL IgV-Fc fusion N52G/N57V/Q100G (Fc fusion) DTQEKEVRAMVGSDVELSCACPEGSRFDLNDVYVYWQTSESKTVVTYHIPQGSSLEVVDSRYRNRALMSPAGMLRGDFSLRLFNVTPQDEQKFHCLVLSGSLGFQEVLSVEVTLHVAANFSVGSGGGGSEPKSSDKTHTCPPCPAPEAEGAPSVFLFPPKPKDTLMISRTPEVTCVVVDVSHEDPEVKFNWYVDGVEVHNAKTKPREEQYNSTYRVVSVLTVLHQDWLNGKEYKCKVSNKALPAPIEKTISKAKGQPREPQVYTLPPSREEMTKNQVSLTCLVKGFYPSDIAVEWESNGQPENNYKTTPPVLDSDGSFFLYSKLTVDKSRWQQGNVFSCSVMHEALHNHYTQKSLSLSPG
Result block: 23700
